Please go through the items and note down their ELISA signal.
biological target: T1, Recombinant Human DLL4 (R&D Systems Cat#1506-D4/CF) (human, UniProt Q9NR61 27-524); assay: ELISA, DLL4 coated on plate, Fab at 2.22 nM
T1 construct: Bought recombinant protein; also called delta-like protein 4; Delta-like 4
Returns: the value as a bare number; no unit string appended.

INPUT: Report ELISA signal for Fab VH5-51_IGHD5-18*01>3_IGHJ4*01 G100K/G104T G24T/S28R/G35V (H:KT TRV) & V3-4_IGLJ1*01 (Fab, V domains shown, Fab expressed in E. coli; Plasmid A adds CH1 with His6 and Flag tags to the heavy chain; Plasmid E adds lambda CL to the light chain; also called H:KT TRV & L:wt; G100K/G104T G24T/S28R/G35V & parent) VH: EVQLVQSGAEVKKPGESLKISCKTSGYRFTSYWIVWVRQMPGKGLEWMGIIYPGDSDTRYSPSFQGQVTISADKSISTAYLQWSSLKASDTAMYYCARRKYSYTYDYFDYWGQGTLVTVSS VL: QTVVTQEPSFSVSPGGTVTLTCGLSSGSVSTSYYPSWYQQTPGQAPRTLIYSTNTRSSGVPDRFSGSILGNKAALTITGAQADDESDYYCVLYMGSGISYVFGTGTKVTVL please.
OUTPUT: 0

INPUT: Report ELISA signal for Fab VH5-51_IGHD5-18*01>3_IGHJ4*01 G100K/G104T (H:KT) & V3-4_IGLJ1*01 M94R/S96M (L:RM) (Fab, V domains shown, Fab expressed in E. coli; Plasmid A adds CH1 with His6 and Flag tags to the heavy chain; Plasmid E adds lambda CL to the light chain; also called H:KT & L:RM; G100K/G104T & M94R/S96M) VH: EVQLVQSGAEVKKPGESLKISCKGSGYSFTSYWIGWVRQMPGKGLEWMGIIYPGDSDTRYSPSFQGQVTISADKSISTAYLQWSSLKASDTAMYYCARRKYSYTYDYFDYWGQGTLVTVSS VL: QTVVTQEPSFSVSPGGTVTLTCGLSSGSVSTSYYPSWYQQTPGQAPRTLIYSTNTRSSGVPDRFSGSILGNKAALTITGAQADDESDYYCVLYRGMGISYVFGTGTKVTVL please.
OUTPUT: 0.007

INPUT: Report ELISA signal for Fab VH5-51_IGHD5-18*01>3_IGHJ4*01 G100K/G104T (H:KT) & V3-4_IGLJ1*01 (Fab, V domains shown, Fab expressed in E. coli; Plasmid A adds CH1 with His6 and Flag tags to the heavy chain; Plasmid E adds lambda CL to the light chain; also called H:KT & L:wt; KT double mutant) VH: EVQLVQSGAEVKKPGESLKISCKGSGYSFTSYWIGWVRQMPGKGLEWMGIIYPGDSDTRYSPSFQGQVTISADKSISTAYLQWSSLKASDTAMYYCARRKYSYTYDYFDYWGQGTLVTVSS VL: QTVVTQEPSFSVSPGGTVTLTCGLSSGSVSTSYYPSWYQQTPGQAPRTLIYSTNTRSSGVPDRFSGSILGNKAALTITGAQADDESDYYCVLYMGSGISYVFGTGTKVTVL please.
OUTPUT: 0.014

INPUT: Report ELISA signal for Fab VH5-51_IGHD5-18*01>3_IGHJ4*01 G100K/G104T G24T/S28R/G35V (H:KT TRV) & V3-4_IGLJ1*01 M94R/S96M (L:RM) (Fab, V domains shown, Fab expressed in E. coli; Plasmid A adds CH1 with His6 and Flag tags to the heavy chain; Plasmid E adds lambda CL to the light chain; also called H:KT TRV & L:RM; G100K/G104T G24T/S28R/G35V & M94R/S96M) VH: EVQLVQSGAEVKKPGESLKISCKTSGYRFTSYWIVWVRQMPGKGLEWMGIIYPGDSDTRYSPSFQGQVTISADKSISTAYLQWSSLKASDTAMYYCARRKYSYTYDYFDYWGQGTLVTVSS VL: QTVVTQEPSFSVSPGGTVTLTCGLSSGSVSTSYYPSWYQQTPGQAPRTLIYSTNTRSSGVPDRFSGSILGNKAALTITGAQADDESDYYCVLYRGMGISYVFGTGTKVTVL please.
OUTPUT: 0.028

INPUT: Report ELISA signal for Fab VH5-51_IGHD5-18*01>3_IGHJ4*01 G100K/G104T G24L/S28R/G35V (H:KT LRV) & V3-4_IGLJ1*01 (Fab, V domains shown, Fab expressed in E. coli; Plasmid A adds CH1 with His6 and Flag tags to the heavy chain; Plasmid E adds lambda CL to the light chain; also called H:KT LRV & L:wt; G100K/G104T G24L/S28R/G35V & parent) VH: EVQLVQSGAEVKKPGESLKISCKLSGYRFTSYWIVWVRQMPGKGLEWMGIIYPGDSDTRYSPSFQGQVTISADKSISTAYLQWSSLKASDTAMYYCARRKYSYTYDYFDYWGQGTLVTVSS VL: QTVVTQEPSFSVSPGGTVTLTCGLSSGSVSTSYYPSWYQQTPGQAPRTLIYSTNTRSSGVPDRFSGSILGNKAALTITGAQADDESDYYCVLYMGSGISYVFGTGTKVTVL please.
OUTPUT: 0

INPUT: Report ELISA signal for Fab VH5-51_IGHD5-18*01>3_IGHJ4*01 G100K/G104T G24A/S28R/G35V (H:KT ARV) & V3-4_IGLJ1*01 (Fab, V domains shown, Fab expressed in E. coli; Plasmid A adds CH1 with His6 and Flag tags to the heavy chain; Plasmid E adds lambda CL to the light chain; also called H:KT ARV & L:wt; G100K/G104T G24A/S28R/G35V & parent) VH: EVQLVQSGAEVKKPGESLKISCKASGYRFTSYWIVWVRQMPGKGLEWMGIIYPGDSDTRYSPSFQGQVTISADKSISTAYLQWSSLKASDTAMYYCARRKYSYTYDYFDYWGQGTLVTVSS VL: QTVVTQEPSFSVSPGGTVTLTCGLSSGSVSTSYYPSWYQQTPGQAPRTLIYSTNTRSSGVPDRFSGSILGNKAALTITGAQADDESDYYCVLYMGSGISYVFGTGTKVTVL please.
OUTPUT: 0.002
